biological target: wild-type Epidermal Growth Factor Receptor (EGFR) (Homo sapiens (Human), UniProt P00533)
Sequence (P00533 669-1210): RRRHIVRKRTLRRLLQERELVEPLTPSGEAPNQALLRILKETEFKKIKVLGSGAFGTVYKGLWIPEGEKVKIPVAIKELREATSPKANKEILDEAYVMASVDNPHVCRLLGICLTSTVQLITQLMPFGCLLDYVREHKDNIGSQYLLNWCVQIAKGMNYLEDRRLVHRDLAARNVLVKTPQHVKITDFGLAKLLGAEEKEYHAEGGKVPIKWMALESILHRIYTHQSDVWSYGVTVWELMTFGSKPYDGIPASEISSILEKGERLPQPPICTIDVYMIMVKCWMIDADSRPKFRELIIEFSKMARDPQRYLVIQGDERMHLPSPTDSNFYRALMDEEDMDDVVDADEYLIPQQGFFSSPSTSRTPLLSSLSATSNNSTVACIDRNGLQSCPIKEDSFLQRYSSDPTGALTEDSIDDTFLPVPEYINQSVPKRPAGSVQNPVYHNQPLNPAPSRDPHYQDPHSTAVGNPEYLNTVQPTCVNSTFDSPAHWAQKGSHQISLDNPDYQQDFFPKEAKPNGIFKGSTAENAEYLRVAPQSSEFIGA
Each item that follows carries a reported IC50.
parameter_measured: IC50 (nM)

| compound | parameter_measured | result_comparator | reading |
| --- | --- | --- | --- |
| CN1CC(CC2CC2)c2[nH]c(-c3ccnc(NC(=O)Cc4ccc(F)cc4)c3)c(Nc3ccccc3)c2C1=O (single isomer, unassigned) [Example 19] | IC50 | = | 1800 |
| CN1CC(CC(F)(F)F)c2[nH]c(-c3ccnc(NC(=O)Cc4ccc(F)cc4)c3)c(Nc3cscn3)c2C1=O (racemic) [Example 46] | IC50 | > | 20000 |
| CCC1CNC(=O)c2c1[nH]c(-c1ccnc(NC(=O)Cc3ccc(F)cc3)c1)c2Nc1ccccc1 (single isomer, unassigned) [Example 2] | IC50 | = | 190 |
| Cc1cn(C)c(=O)c2c(Nc3ccccc3)c(-c3ccnc(NC(=O)C(CC(F)F)c4ccc(F)cc4)c3)[nH]c12 (single isomer, unassigned) [Example 13] | IC50 | > | 20000 |
| CC1CN(C)C(=O)c2c1[nH]c(-c1ccnc(NC(=O)Cc3ccc(F)cc3)c1)c2Nc1ccccc1 (single isomer, unassigned; (+)) [Example 8] | IC50 | = | 3000 |
| Cc1ccccc1Nc1c(-c2ccnc(NC(=O)Cc3ccc(F)cc3)c2)[nH]c2c(CC(F)(F)F)cn(C)c(=O)c12 [Example 33] | IC50 | = | 7 |

Values were extracted from patent US20230365554A1.
